Method: superoxide lowering in aged yeast cells, pilot screen, validation compound set (AID 2706);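 further: yeast exposed to compound for one week at 30 degrees C before staining; 100% = mean of all compound wells on the same plate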
Test Settings: S. cerevisiae aging, superoxide DHE fluorescence; at 10 µM, hits give low values
Active and inactive are the calls of the source.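 How the source made its calls: active means superoxide response below 65% of plate, a cut near 3 SD across the whole screen; inactive means the rest.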
Measurement Kind: superoxide response (% of plate)

Compound	Measurement Kind	Reported Result
CC1COc2c(N3CCN(C)CC3)c(F)cc3c(=O)c(C(=O)O)cn1c23 (stereo unspecified)	superoxide response (% of plate)	112% (inactive)
COc1ccc(C(=O)Nc2nc3ccccc3c(=O)[nH]2)cc1	superoxide response (% of plate)	84.4% (inactive)
Cc1ccc2c(c1)C(O)(CC(=O)/C=C/C=C/c1ccccc1)C(=O)N2 (stereo unspecified)	superoxide response (% of plate)	111% (inactive)
COc1ccc(N2C(=O)C3CCCN3C2=O)cc1 (stereo unspecified)	superoxide response (% of plate)	98.7% (inactive)

Dear colleague, please send me the reported superoxide response (% of plate) for COc1ccc2c(CCNC(=O)c3ccc([N+](=O)[O-])cc3)c[nH]c2c1 when you can. 105% (inactive)

Dear colleague, please send me the reported superoxide response (% of plate) for Oc1c(Cl)cc(Cl)c(Cl)c1Cc1c(O)c(Cl)cc(Cl)c1Cl when you can. 79.3% (inactive)

Dear colleague, please send me the reported superoxide response (% of plate) for COc1ccc(CCN=C(N)C(C)c2ccccc2)cc1OC (stereo unspecified) when you can. 93.8% (inactive)

Dear colleague, please send me the reported superoxide response (% of plate) for Cc1ccc2[nH]c3c(=O)n(CCCN4CCN(C)CC4)cnc3c2c1 when you can. 99.9% (inactive)

Dear colleague, please send me the reported superoxide response (% of plate) for CC(C)Oc1ccc(C(CC(=O)O)c2ccc(F)cc2)cc1 (stereo unspecified) when you can. 105% (inactive)

Dear colleague, please send me the reported superoxide response (% of plate) for COc1ccc(CCNC(=O)C(=O)Nc2ccc3c(c2)OCO3)cc1OC when you can. 96.1% (inactive)

Dear colleague, please send me the reported superoxide response (% of plate) for COc1cccc(N2C(=O)[C@H]3C(C(=O)c4cnccn4)=NN[C@H]3C2=O)c1 when you can. 106% (inactive)
